Origin of measurements: patent US20030232009A1

Assay System: T1, Human 20.2 peptide (human)
T1 construct: synthetic peptide from the RB exon
T1 peptide: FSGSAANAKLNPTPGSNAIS
Experiment: recombinant antibody on peptide

Binder	binding result
AB-CD45RB-XG2-009 (antibody, human IgG2, V domains shown, recombinant human IgG2 kappa; also called sc009; 16C9 (sc009)) VH: QVQLVESGGGVVQPGRSLRLSCAASGFTFSNYGMHWVRQAPGKGLEWVAVIWYDGSKRFYAGSVKGRFTISRDNSKNTLYLQMNSLRAEDTAVYYCARTTDYWGQGTMVTVSS VL: DIVMTQTPLSLSVTPGQPASISCKSSQSLLHSDGKTYLYWYLQKPGQPPQLLIYEVSNRFSGVPDRFSGSGSGTDFTLKISRVEAEDVGLYWCMQSIQLPITFGQGTRLEIK	no binding
AB-CD45RB-XG2-413 (antibody, human IgG2, V domains shown, recombinant human IgG2 kappa; also called sc413) VH: QVQLVESGGGVVQPGRSLRLSCAASGFTFSSYGMHWVRQAPDKGLEWVAVIWYDGSYKYYADSVKGRFTISRDNSKNTLYLQMNSLRAEDTAVYYCARGGGSFDYWGQGTLVTVSS VL: DIVMTQTPLSLSVTPGQPASISCKSSQSLLHRDGKTFLYWYLQKPGQPPQLLIYEVSNRFSGVPDRFSGSGSGTDFTLKISRVEAEDVGVYYCMQSIQFPITFGQGTRLEIK	no binding
AB-CD45RB-XG2-593 (antibody, human IgG2, V domains shown, recombinant human IgG2 kappa; also called sc593) VH: QVQLVESGGGVVQPGRSLRVSCAASGFTFSNYGMHWVRQAPGKGLEWVAVIWYDGSKKFYADSVKGRFTISRDNSQNTLSLQMSSLRAEDTAVYYCARGGGDFDFWGQGTLVTVSS VL: KIVMTQSPATLSVSPGERATLSCRASQSVSGNYLAWYQQRPGQAPRLLIYGASTRATGIPARFSGSGSGTEFTLTISSLQSEDFAVYYCQQYGKWPPLTFGGGTKVEIK	no binding
